Listed next: entries and their corresponding relative intracellular content of collagen.
- Test system: normal primary human skin fibroblastic cells
- Assay summary: Intracellular content of collagen in fibroblasts (Western blot and ELISA), relative to control
- Type: cell-based
- Protocol conditions: 0.1 μM, 48 hours; control group = 100%
Give the value, in units of %, as a plain number.

As a guide, the following entries are already answered.
compound=C=C(CC[C@@H](C(=O)O)[C@H]1[C@H](O)C[C@@]2(C)C3=C(CC[C@]12C)[C@@]1(C)CC[C@H](O)C(C)(C)[C@@H]1CC3)C(C)C assay_value=127
compound="C=C(CC[C@@H](C(=O)O)[C@H]1CC[C@@]2(C)C3=C(CC[C@]12C)[C@@]1(C)CC[C@H](O)C(C)(C)[C@@H]1CC3)C(C)C [Eburicoic acid (EA), eburicoic acid]" assay_value=97
compound="C=C(CCC(C(=O)O)[C@H]1[C@H](O)C[C@@]2(C)C3=CC[C@H]4C(C)(C)[C@@H](OC(C)=O)CC[C@]4(C)C3=CC[C@]12C)C(C)C (stereo partly drawn) [Dehydropachymic acid (DPA), dehydropachymic acid]" assay_value=188
compound="C=C(CC[C@@H](C(=O)O)[C@H]1[C@H](O)C[C@@]2(C)C3=CC[C@H]4C(C)(C)[C@H](O)CC[C@]4(C)C3=CC[C@]12C)C(C)C [3-epi-dehydrotumulosic acid (EDTA), 3-epi-dehydrotumulosic acid]" assay_value=100
compound=C=C(CC[C@@H](C(=O)O)[C@H]1[C@H](O)C[C@@]2(C)C3=CC[C@@H](C(=C)C)[C@](C)(CCC(=O)O)C3=CC[C@]12C)C(C)C assay_value=104

Task item: Consider the compound C=C(CC[C@@H](C(=O)O)[C@H]1[C@H](O)C[C@@]2(C)C3=CC[C@H]4C(C)(C)C(=O)CC[C@]4(C)C3=CC[C@]12C)C(C)C . State its measured relative intracellular content of collagen.
Reply: 182

Task item: Consider the compound C=C(C)[C@@H]1CC=C2C(=CC[C@]3(C)[C@@H]([C@@H](CCC=C(C)C)C(=O)O)[C@H](O)C[C@@]23C)[C@@]1(C)CCC(=O)O . State its measured relative intracellular content of collagen.
Reply: 108

Task item: Consider the compound C=C(CC[C@@H](C(=O)O)[C@H]1CC[C@@]2(C)C3=CC[C@H]4C(C)(C)[C@@H](O)CC[C@]4(C)C3=CC[C@]12C)C(C)C [Dehydroeburicoic acid (DEA), dehydroeburicoic acid] . State its measured relative intracellular content of collagen.
Reply: 80

Task item: Consider the compound C=C(CC[C@@H](C(=O)O)[C@H]1[C@H](O)C[C@@]2(C)C3=CC[C@H]4C(C)(C)[C@@H](O)CC[C@]4(C)C3=CC[C@]12C)C(C)C [Dehydrotumulosic acid (DTA), dehydrotumulosic acid] . State its measured relative intracellular content of collagen.
Reply: 156

----------
- Tested on: normal primary human skin fibroblastic cells
- Assay summary: Content of collagen in cell medium (extracellular collagen) of fibroblasts (Western blot and ELISA), relative to control
- Assay type: cell-based
- Protocol conditions: 0.01 μM, 48 hours; control group = 100%
Endpoint name: relative content of collagen in the medium (extracellular content of collagen)
Returns: string containing the number followed by the unit.

molecule="CC(C)=CCC[C@@H](C(=O)O)[C@H]1CC[C@@]2(C)C3=CC[C@H]4C(C)(C)[C@@H](O)CC[C@]4(C)C3=CC[C@]12C [Dehydrotrametenolic acid (DTTA), dehydrotrametenolic acid]" target_entity="normal primary human skin fibroblastic cells" assay_value=117%
molecule="C=C(CC[C@@H](C(=O)O)[C@H]1[C@H](O)C[C@@]2(C)C3=CC[C@@H](C(=C)C)[C@](C)(CCC(=O)O)C3=CC[C@]12C)C(C)C [Poricoic acid A (PAA), poricoic acid A]" target_entity="normal primary human skin fibroblastic cells" assay_value=111%

Task item: Consider the molecule CC(C)=CCC[C@@H](C(=O)O)[C@H]1CC[C@@]2(C)C3=C(CC[C@]12C)[C@@]1(C)CC[C@H](O)C(C)(C)[C@@H]1CC3 [Trametenolic acid (TTA), trametenolic acid] . State its measured relative content of collagen in the medium (extracellular content of collagen).
Reply: 141%

Task item: Consider the molecule C=C(CC[C@@H](C(=O)O)[C@H]1[C@H](O)C[C@@]2(C)C3=CC[C@H]4C(C)(C)[C@H](O)CC[C@]4(C)C3=CC[C@]12C)C(C)C [3-epi-dehydrotumulosic acid (EDTA), 3-epi-dehydrotumulosic acid] . State its measured relative content of collagen in the medium (extracellular content of collagen).
Reply: 98%

----------
- Test system: normal primary human skin fibroblastic cells
- Assay summary: Intracellular content of collagen in fibroblasts (Western blot and ELISA), relative to control
- Format: cell-based
- Protocol conditions: 0.1 μM, 48 hours; control group = 100%
Listed next: entries and their corresponding relative intracellular content of collagen.
Give the value, in units of %, as a plain number.

compound="CC(C)=CCC[C@@H](C(=O)O)[C@H]1CC[C@@]2(C)C3=C(CC[C@]12C)[C@@]1(C)CC[C@H](O)C(C)(C)[C@@H]1CC3 [Trametenolic acid (TTA), trametenolic acid]" assay_value=79
compound="CC(C)=CCC[C@@H](C(=O)O)[C@H]1CC[C@@]2(C)C3=CC[C@H]4C(C)(C)[C@@H](O)CC[C@]4(C)C3=CC[C@]12C [Dehydrotrametenolic acid (DTTA), dehydrotrametenolic acid]" assay_value=174

Pending compound:
Task item: Consider the compound C=C(CC[C@@H](C(=O)O)[C@H]1[C@H](O)C[C@@]2(C)C3=C(CC[C@]12C)[C@@]1(C)CC[C@H](OC(C)=O)C(C)(C)[C@@H]1CC3)C(C)C [Pachymic acid (PA), pachymic acid] . State its measured relative intracellular content of collagen.
Reply: 235

----------
- Test system: normal primary human skin fibroblastic cells
- Assay summary: Content of collagen in cell medium (extracellular collagen) of fibroblasts (Western blot and ELISA), relative to control
- Type: cell-based
- Protocol conditions: 0.01 μM, 48 hours; control group = 100%
Endpoint name: relative content of collagen in the medium (extracellular content of collagen) (%)
Give the value, in units of %, as a plain number.

As a guide, the following entries are already answered.
compound=C=C(CC[C@@H](C(=O)O)[C@H]1[C@H](O)C[C@@]2(C)C3=CC[C@H]4C(C)(C)C(=O)CC[C@]4(C)C3=CC[C@]12C)C(C)C assay_value=134
compound="C=C(CC[C@@H](C(=O)O)[C@H]1CC[C@@]2(C)C3=C(CC[C@]12C)[C@@]1(C)CC[C@H](O)C(C)(C)[C@@H]1CC3)C(C)C [Eburicoic acid (EA), eburicoic acid]" assay_value=108
compound="C=C(CCC(C(=O)O)[C@H]1[C@H](O)C[C@@]2(C)C3=CC[C@H]4C(C)(C)[C@@H](OC(C)=O)CC[C@]4(C)C3=CC[C@]12C)C(C)C (some centres unmarked) [Dehydropachymic acid (DPA), dehydropachymic acid]" assay_value=124
compound="C=C(CC[C@@H](C(=O)O)[C@H]1[C@H](O)C[C@@]2(C)C3=CC[C@H]4C(C)(C)[C@@H](O)CC[C@]4(C)C3=CC[C@]12C)C(C)C [Dehydrotumulosic acid (DTA), dehydrotumulosic acid]" assay_value=122

Task item: Consider the compound C=C(CC[C@@H](C(=O)O)[C@H]1[C@H](O)C[C@@]2(C)C3=C(CC[C@]12C)[C@@]1(C)CC[C@H](OC(C)=O)C(C)(C)[C@@H]1CC3)C(C)C . State its measured relative content of collagen in the medium (extracellular content of collagen).
Reply: 117

Task item: Consider the compound C=C(C)[C@@H]1CC=C2C(=CC[C@]3(C)[C@@H]([C@@H](CCC=C(C)C)C(=O)O)[C@H](O)C[C@@]23C)[C@@]1(C)CCC(=O)O . State its measured relative content of collagen in the medium (extracellular content of collagen).
Reply: 122

Task item: Consider the compound C=C(CC[C@@H](C(=O)O)[C@H]1CC[C@@]2(C)C3=CC[C@H]4C(C)(C)[C@@H](O)CC[C@]4(C)C3=CC[C@]12C)C(C)C [Dehydroeburicoic acid (DEA), dehydroeburicoic acid] . State its measured relative content of collagen in the medium (extracellular content of collagen).
Reply: 143

Task item: Consider the compound C=C(CC[C@@H](C(=O)O)[C@H]1[C@H](O)C[C@@]2(C)C3=C(CC[C@]12C)[C@@]1(C)CC[C@H](O)C(C)(C)[C@@H]1CC3)C(C)C . State its measured relative content of collagen in the medium (extracellular content of collagen).
Reply: 140
